The origin of these recorded values is ChEMBL document CHEMBL3301472.

# assayMethodText: MMV: MTT Cytotoxicity Assay Day 7 pi of Assay #7 (compound washed out Day 1 pi), U87-CD4-CXCR4 cells, % cell death @ 5mM compound
# Type: toxicity, cell-based
# runParameters: human, u87-cd4-cxcr4, 5000 µM
Label scheme for % Cell Death: lower than -10 is No, -10 and above is Yes.

// known answers, use as guide
# molecule, classAssignment
records = [
    ("O=C(Nc1ccc(N2CCN(Cc3ccccc3)CC2)cc1)c1cccs1.O=C(O)C(F)(F)F", "No"),
    ("COc1cccc(O)c1CN1CCC2(CCCN(Cc3ccc(F)cc3)C2)C1 (centres undefined)", "Yes"),
]

Confirm if % Cell Death reported for the molecule COC(=O)c1ccc(C2C3=C(O)CC(c4ccc(F)cc4)CC3=Nc3ccccc3N2C(=O)c2ccccc2)cc1 (centres undefined) is -10 or above. Yes

In plain terms: is recorded % Cell Death at least -10 for `CC1CCN(Cc2ccc(NC(=O)c3cc4ccc5cccnc5c4[nH]3)cc2)CC1` ? No

I'd appreciate it if you could say whether `Cn1c(=O)c2cc(C(=O)NCCCN3CCCCCC3)sc2c2ccccc21` has % Cell Death at least equal to -10. No

* * *

Reported % Cell Death values for the following molecules.
# assayMethodText: MMV: MTT Cytotoxicity Assay Day 7 pi of Assay #11 (NO washout), U87-CD4-CXCR4 cells, % cell death @ 5mM compound
# Type: toxicity, cell-based
# runParameters: human, u87-cd4-cxcr4, 5000 µM
Provide a numeric answer; units are not to be included.

Check out these entries, answers already filled in.
# molecule, % Cell Death
records = [
    ("Oc1ccccc1CN1CCC2(CCCN(Cc3ccccc3F)C2)C1 (stereo not drawn)", 39),
    ("O=C(O)C(=O)O.Oc1ccc(Br)cc1CN1CCN(Cc2cccc(F)c2)CC1", 112),
]

Now consider a different molecule.
Would you kindly share the measured % Cell Death for COCCNCC(O)Cn1c2ccc(Cl)cc2c2cc(Cl)ccc21 (stereo not drawn) ? 15

* * *

# assayMethodText: MMV: MTT Cytotoxicity Assay Day 7 pi of Assay #10 (NO washout), U87-CD4-CCR5 cells, % cell death @ 5mM compound
# Assay type: toxicity, cell-based
# runParameters: human, u87-cd4-ccr5, 5000 µM
assayEndpoint: % Cell Death
Form: value (number only, do not type unit).

Find the recorded % Cell Death belonging to CCC(c1ccccc1)c1nn2c(-c3cccs3)nnc2s1 (stereo unspecified) and report it. 41

* * *

# assayMethodText: MMV: MTT Cytotoxicity Assay Day 7 pi of Assay #10 (NO washout), U87-CD4-CCR5 cells, % cell death @ 5mM compound
# Type: toxicity, cell-based
# runParameters: human, u87-cd4-ccr5, 5000 µM
Collected % Cell Death values appear next to each entry.
Reply briefly: the number, and no unit.

Worked cases, % Cell Death given:
# compound, assayEndpoint, reportedValue
measured = [
    ("CCCOCc1cc(CN2CCN(c3cccc(Cl)c3)CC2)c(O)c2ncccc12", "% Cell Death", 15),
    ("Br.CCN(CC)S(=O)(=O)c1ccc(-c2csc(Nc3ccc(C)c(C)c3)n2)cc1", "% Cell Death", 26),
    ("Cl.c1ccc2c(NCCCCCCNc3c4c(nc5ccccc35)CCCC4)c3c(nc2c1)CCCC3", "% Cell Death", 34),
    ("OC(CNCC1CCCO1)Cn1c2ccc(Cl)cc2c2cc(Cl)ccc21 (stereo not given)", "% Cell Death", -2),
    ("CC(C)(C)c1ccc(C(=O)Nc2c3c(nn2-c2cccc(Cl)c2)CSC3)cc1", "% Cell Death", 7),
]

Which % Cell Death value is on record for COC(=O)c1ccc(Cl)c2c1C1C=CCC1C(c1cccc3ccccc13)N2 (stereo not given) ? -21

Please look up its % Cell Death: `Cc1ccc(F)cc1NC(=O)c1cc(Cl)ccc1Nc1ccccc1` 28

Consider the compound shown here: CC(C)(C)CC(C)(C)NCC(O)COc1ccc2c(c1)CCC2.Cl (stereo not given) What is its recorded % Cell Death? -10

Any idea what % Cell Death was measured for `COc1ccc2c(=O)cc(C(Cl)(Cl)Cl)oc2c1` ? 100

Record request: % Cell Death value, item `Cc1cc(NC(=O)c2cccc(C(F)(F)F)c2)n(-c2nc(-c3ccc4c(c3)OCO4)cs2)n1` 9

Record request: % Cell Death value, item `Cc1ccc(N2C3c4ccccc4N(S(=O)(=O)c4ccc(C)cc4)C2c2ccccc2N3S(=O)(=O)c2ccc(C)cc2)cc1` 8

What does the data say about its % Cell Death? Entry: `Clc1ccc2c(N3CCCC3)ccnc2c1` 16
